# Tested on: Hedgehog Signaling Pathway
# METHOD: SHH-induced differentiation of C3H10T1/2 cells into osteoblastic cells, intracellular alkaline phosphatase activity
# Format: cell-based, mouse
# REPORTED CONDITIONS: Mus musculus, C3H 10T1/2, 120 h, 10 nM SHH-N, 5 days, alkaline phosphatase activity (OD405), read-out: IC50 values of compounds that inhibit Hh pathway
RECORDED METRIC: log10 IC50 (log10 of the value in nM)
Values reflect log10 of reported IC50 (nM).

// log10 IC50 lookup, key: Cc1cc(N2C[C@@H](C)N(C)[C@@H](C)C2)ccc1C(=O)Nc1ccc(Cl)c(-c2nc3ccc(Cl)cc3[nH]2)c1 [Example 97]
-0.23

// log10 IC50 lookup, key: Cc1cc(N2CCNCC2)ccc1C(=O)Nc1ccc(Cl)c(-c2nc3ccccc3[nH]2)c1 [Example 108]
1.88

// log10 IC50 lookup, key: Cc1cc(N2C[C@@H](C)O[C@@H](C)C2)ncc1C(=O)Nc1cnc(Cl)c(-c2nc3ccccc3[nH]2)c1 [Example 85]
0.75

// log10 IC50 lookup, key: Cc1nc(N2C[C@@H](C)O[C@@H](C)C2)ccc1C(=O)Nc1ccc(Cl)c(-c2nc3ccccc3[nH]2)c1 [Example 38]
0.69

// log10 IC50 lookup, key: Cc1ncc(NC(=O)c2ccc(N3C[C@@H](C)N(C)[C@@H](C)C3)nc2)cc1-c1nc2ccccc2[nH]1 [Example 90]
1.54

// log10 IC50 lookup, key: C[C@@H]1CN(c2ccc(C(=O)Nc3ccc(Cl)c(-c4nc5ccccc5s4)c3)c(Cl)c2)C[C@H](C)N1C [Example 207]
1.49

====

# Test system: Hedgehog Signaling Pathway
# METHOD: SHH-induced differentiation of C3H10T1/2 cells into osteoblastic cells, intracellular alkaline phosphatase activity
# Format: cell-based, mouse
# REPORTED CONDITIONS: Mus musculus, C3H 10T1/2, 120 h, 10 nM SHH-N, 5 days, alkaline phosphatase activity (OD405), read-out: IC50 values of compounds that inhibit Hh pathway
Would you mind telling me the reported pIC50 of each entry?
Here pIC50 is given on a logarithmic scale as minus log10 of the concentration in mol/L.

API: value(readout= pIC50, system= Hedgehog Signaling Pathway, query= C[C@@H]1CN(c2ccc(C(=O)Nc3ccc(Cl)c(-c4nc5ccccc5[nH]4)c3)cc2)C[C@H](C)N1C )
7.89

API: value(readout= pIC50, system= Hedgehog Signaling Pathway, query= Cc1ccc(NC(=O)c2ccc(N3C[C@@H](C)N(C)[C@@H](C)C3)cc2Cl)cc1-c1nc2ccccc2[nH]1 )
8.41

API: value(readout= pIC50, system= Hedgehog Signaling Pathway, query= Cc1cc(N2C[C@@H](C)N(C(C)C)[C@@H](C)C2)ccc1C(=O)Nc1ccc(Cl)c(-c2nc3ccccc3[nH]2)c1 )
9.19

API: value(readout= pIC50, system= Hedgehog Signaling Pathway, query= Cc1c(C(=O)Nc2ccc(Cl)c(-c3nc4ccccc4[nH]3)c2)ccc(N2C[C@@H](C)N(C)[C@@H](C)C2)c1F )
9.28

API: value(readout= pIC50, system= Hedgehog Signaling Pathway, query= C[C@@H]1CN(c2ccc(C(=O)Nc3ccc(Cl)c(-c4nc5ccccc5[nH]4)c3)cn2)C[C@H](C)O1 )
8.00

API: value(readout= pIC50, system= Hedgehog Signaling Pathway, query= Cc1c(NC(=O)c2ccc(N3C[C@@H](C)O[C@@H](C)C3)nc2)cccc1-c1nc2ccccc2[nH]1 )
6.30

API: value(readout= pIC50, system= Hedgehog Signaling Pathway, query= COc1ncc(-c2ccc(C(=O)Nc3ccc(Cl)c(-c4nc5ccccc5[nH]4)c3)c(C)c2)cn1 )
7.82

====

Would you mind telling me the reported pIC50 of each entry?
# System: Hedgehog Signaling Pathway
# METHOD: SHH-induced differentiation of C3H10T1/2 cells into osteoblastic cells, intracellular alkaline phosphatase activity
# Format: cell-based, mouse
# REPORTED CONDITIONS: Mus musculus, C3H 10T1/2, 120 h, 10 nM SHH-N, 5 days, alkaline phosphatase activity (OD405), read-out: IC50 values of compounds that inhibit Hh pathway
# Experimental: The Application of SHH to Induce Pluripotent Mesenchymal Mouse Embryonic Cell C3H10T1/2 to Differentiate into Osteoblastic Cells for the Determination of the Inhibitory Activity of N-(3-(1H-benzo[d]imidazol-2-yl)-4-chlorophenyl)-2-methyl-4-((2S,6R)-2,6-dimethylmorpholino)benzamide and Analogs on Hedgehog Signaling Pathway […] After incubating for 5 days, the cells were taken out and intracellular alkaline phosphatase activity was tested. The alkaline phosphatase activity was measured as follows: […]
Here pIC50 is given on a logarithmic scale as minus log10 of the concentration in mol/L.

// pIC50 lookup, key: Cc1cc(N2C[C@@H](C)O[C@@H](C)C2)ccc1C(=O)Nc1cnc(Cl)c(-c2nc3ccccc3[nH]2)c1
8.04

// pIC50 lookup, key: O=C(Nc1ccc(Cl)c(-c2nc3ccccc3[nH]2)c1)c1ccc(-c2cccc(F)c2)cc1
7.84

// pIC50 lookup, key: CCN1[C@H](C)CN(c2ccc(C(=O)Nc3ccc(Cl)c(-c4nc5ccc(F)cc5[nH]4)c3)c(Cl)c2)C[C@@H]1C
8.05

// pIC50 lookup, key: C[C@@H]1CN(c2ccc(C(=O)Nc3ccc(Cl)c(-c4ncc(-c5ccco5)[nH]4)c3)c(Cl)c2)C[C@H](C)N1C
9.09

// pIC50 lookup, key: Cc1cc(-c2cncnc2)ccc1C(=O)Nc1ccc(Cl)c(-c2nc3ccccc3[nH]2)c1
8.07

// pIC50 lookup, key: C[C@@H]1CN(c2ccc(C(=O)Nc3ccc(Cl)c(-c4nc5ccccc5[nH]4)c3)c(Cl)n2)C[C@H](C)N1C
8.34

// pIC50 lookup, key: CS(=O)(=O)c1ccc(C(=O)Nc2ccc(Cl)c(-c3ccccn3)c2)c(Cl)c1 [GDC-0449, reference compound]
7.42

// pIC50 lookup, key: O=C(Nc1ccc(Cl)c(-c2nc3ccccc3[nH]2)c1)c1ccc(-c2ccc(C(F)(F)F)cc2)cc1Cl
8.43

// pIC50 lookup, key: C[C@@H]1CN(c2ccc(C(=O)Nc3ccc(Cl)c(-c4nc5cscc5[nH]4)c3)c(Cl)c2)C[C@H](C)N1C
9.72

// pIC50 lookup, key: Cc1cc(-c2ccc(C(F)(F)F)cc2)ccc1C(=O)Nc1cccc(-c2cn3ccccc3n2)c1
6.72

// pIC50 lookup, key: Cc1cc(N2C[C@@H](C)N(C)[C@@H](C)C2)ccc1C(=O)Nc1ccc(Cl)c(-c2ncc(C3CCC3)[nH]2)c1
7.72

// pIC50 lookup, key: Cc1cc(-c2ccc(C(F)(F)F)cc2)cc(C)c1C(=O)Nc1ccc(Cl)c(-c2nc3ccccc3[nH]2)c1
7.23

// pIC50 lookup, key: Cc1cc(-c2ccc(C(F)(F)F)cc2)ccc1C(=O)Nc1cncc(-c2nc3ccccc3[nH]2)c1
7.74

// pIC50 lookup, key: Nc1cc(-c2ccc(C(F)(F)F)cc2)ccc1C(=O)Nc1ccc(Cl)c(-c2nc3ccccc3[nH]2)c1
8.26

// pIC50 lookup, key: CCN1[C@H](C)CN(c2ccc(C(=O)Nc3ccc(Cl)c(-c4nc5ccccc5[nH]4)c3)c(Cl)c2)C[C@@H]1C
9.31

// pIC50 lookup, key: Cc1cc(-c2ccsc2)ccc1C(=O)Nc1ccc(Cl)c(-c2nc3ccccc3[nH]2)c1
6.47

// pIC50 lookup, key: Cc1cc(N2C[C@@H](C)O[C@@H](C)C2)ccc1C(=O)Nc1ccc(Cl)c(-c2nc3ccccc3[nH]2)c1
8.10

// pIC50 lookup, key: Cc1cc(-c2ccoc2)ccc1C(=O)Nc1ccc(Cl)c(-c2nc3ccccc3[nH]2)c1
7.49

====

# Tested on: Hedgehog Signaling Pathway
# METHOD: SHH-induced differentiation of C3H10T1/2 cells into osteoblastic cells, intracellular alkaline phosphatase activity
# Assay type: cell-based, mouse
# REPORTED CONDITIONS: Mus musculus, C3H 10T1/2, 120 h, 10 nM SHH-N, 5 days, alkaline phosphatase activity (OD405), read-out: IC50 values of compounds that inhibit Hh pathway
RECORDED METRIC: IC50 (nM)
Respond numerically; units are nM and should not be typed.

API: value(readout= IC50, system= Hedgehog Signaling Pathway, query= C[C@@H]1CN(c2ccc(C(=O)Nc3ccc(Cl)c(-c4ncc(C(C)(C)C)[nH]4)c3)c(Cl)c2)C[C@H](C)N1C )
6.1

API: value(readout= IC50, system= Hedgehog Signaling Pathway, query= Cc1cc(-c2cccc(F)c2)ccc1C(=O)Nc1ccc(Cl)c(-c2nc3ccccc3[nH]2)c1 )
6.3

API: value(readout= IC50, system= Hedgehog Signaling Pathway, query= Cc1cc(N2C[C@@H](C)N[C@@H](C)C2)ccc1C(=O)Nc1ccc(Cl)c(-c2nc3ccccc3[nH]2)c1 )
6.4
